method.description: Therapeutic index value against H9 lymphocytes; No suppression
Format: cell-based
test.context: human
measured.parameter: Therapeutic index

[
  {
    "molecule": "Cc1cc(=O)oc2c3c(ccc12)OC(C)(C)[C@H](OC(=O)CC(C)C)[C@@H]3OC(=O)CC(C)C",
    "value": "Not Active"
  },
  {
    "molecule": "Cc1cc(=O)oc2c3c(ccc12)OC(C)(C)[C@H](OS(=O)(=O)CC12CCC(CC1=O)C2(C)C)[C@@H]3O (stereo in doubt; 23)",
    "value": "Not Active"
  },
  {
    "molecule": "Cc1cc(=O)oc2c3c(ccc12)OC(C)(C)[C@H](OC(=O)Nc1cccc2ccccc12)[C@@H]3OC(=O)Nc1cccc2ccccc12",
    "value": "Not Active"
  },
  {
    "molecule": "Cc1cc(=O)oc2c3c(ccc12)OC(C)(C)[C@H](OC(=O)c1cccc(Br)c1)[C@@H]3OC(=O)c1cccc(Br)c1",
    "value": "Not Active"
  }
]

Let us examine a further case.
Qu. Give reported Therapeutic index value for Cc1cc(=O)oc2c3c(ccc12)OC(C)(C)[C@H](O)[C@@H]3OC(=O)C12CC3CC(CC(C3)C1)C2
Ans. Not Active
